Reference for the values: patent US8937072B2

System: rice blast
Experiment: microbe, parasite or virus in culture
Assay type: cell-based
Settings: Table 21, 0.1 mg/L
Value type: the inhibition rate against rice blast (%) 0.1 mg/L
Give the quantity in %, number only.

Form field: reported the inhibition rate against rice blast (%) 0.1 mg/L of COC(=O)c1cc(Cl)c(Nc2c(Cl)c(Cl)c(C#N)c(Cl)c2C#N)c(Cl)c1
80

Form field: reported the inhibition rate against rice blast (%) 0.1 mg/L of N#Cc1c(Cl)c(Cl)c(C#N)c(Nc2c(Cl)cncc2Cl)c1Cl
100

Form field: reported the inhibition rate against rice blast (%) 0.1 mg/L of N#Cc1c(Cl)c(Cl)c(Nc2cc(Cl)cnc2Cl)c(C#N)c1Cl
100

Form field: reported the inhibition rate against rice blast (%) 0.1 mg/L of N#Cc1c(Cl)c(Cl)c(Nc2c(Cl)cncc2Cl)c(Cl)c1C#N
100

Form field: reported the inhibition rate against rice blast (%) 0.1 mg/L of N#Cc1c(Cl)c(Cl)c(Nc2ccc(Cl)cc2[N+](=O)[O-])c(C#N)c1Cl
80

Form field: reported the inhibition rate against rice blast (%) 0.1 mg/L of Cc1cc([N+](=O)[O-])cc(Cl)c1Nc1c(Cl)c(Cl)c(C#N)c(Cl)c1C#N
50

Form field: reported the inhibition rate against rice blast (%) 0.1 mg/L of N#Cc1c(Cl)c(Cl)c(Nc2c(F)cc([N+](=O)[O-])cc2F)c(Cl)c1C#N
100

Form field: reported the inhibition rate against rice blast (%) 0.1 mg/L of N#Cc1c(Cl)c(Cl)c(Nc2nc(Cl)c(Cl)cc2Cl)c(C#N)c1Cl
100

Form field: reported the inhibition rate against rice blast (%) 0.1 mg/L of N#Cc1c(Cl)c(Cl)c(Nc2cc(C(F)(F)F)ccc2F)c(C#N)c1Cl
50

Form field: reported the inhibition rate against rice blast (%) 0.1 mg/L of N#Cc1c(Cl)c(Cl)c(C#N)c(Nc2c(Cl)cc([N+](=O)[O-])cc2Br)c1Cl
100

Form field: reported the inhibition rate against rice blast (%) 0.1 mg/L of N#Cc1c(Cl)c(Cl)c(C#N)c(Nc2c(Cl)cc(C(F)(F)F)cc2Cl)c1Cl
100

Form field: reported the inhibition rate against rice blast (%) 0.1 mg/L of N#Cc1c(Cl)c(Cl)c(C#N)c(Nc2c(F)cc([N+](=O)[O-])cc2F)c1Cl
100

Form field: reported the inhibition rate against rice blast (%) 0.1 mg/L of N#Cc1c(Cl)c(Cl)c(Nc2c(Cl)cc([N+](=O)[O-])cc2Br)c(Cl)c1C#N
100

Form field: reported the inhibition rate against rice blast (%) 0.1 mg/L of N#Cc1c(Cl)c(Cl)c(C#N)c(Nc2cc(Cl)cnc2Cl)c1Cl
100

Form field: reported the inhibition rate against rice blast (%) 0.1 mg/L of N#Cc1c(Cl)c(Cl)c(Nc2cc(Cl)c(C(F)(F)F)cc2Cl)c(C#N)c1Cl
100

Form field: reported the inhibition rate against rice blast (%) 0.1 mg/L of CN(C)c1c(Cl)c(Nc2c(Cl)cc([N+](=O)[O-])cc2Cl)c(C#N)c(Cl)c1C#N
0

Form field: reported the inhibition rate against rice blast (%) 0.1 mg/L of N#Cc1c(Cl)c(Cl)c(Nc2c(F)cc([N+](=O)[O-])cc2Cl)c(C#N)c1Cl
100

###

System: cucumber gray mold
Test: Activity in vitro (96-well, High Through Put): inhibition rate against cucumber gray mold
Type: cell-based
Conditions: 8.3 mg/L; read-out: the inhibition rate against cucumber gray mold (%)
Value type: inhibition at 8.3 µg/mL

Form field: reported inhibition at 8.3 µg/mL of COc1ccc(Nc2c(F)c(F)c(C#N)c(F)c2C#N)cc1
80%

Form field: reported inhibition at 8.3 µg/mL of N#Cc1c(Cl)c(Cl)c(C#N)c(Nc2ccccc2)c1Cl
0%

Form field: reported inhibition at 8.3 µg/mL of N#Cc1c(Cl)c(Cl)c(Nc2ccc(Cl)cc2)c(C#N)c1Cl
0%

Form field: reported inhibition at 8.3 µg/mL of N#Cc1c(F)c(Cl)c(Nc2ccc([N+](=O)[O-])cc2)c(C#N)c1F
0%

Form field: reported inhibition at 8.3 µg/mL of N#Cc1c(F)c(F)c(Nc2ccc(Cl)cc2)c(C#N)c1F
0%

Form field: reported inhibition at 8.3 µg/mL of N#Cc1c(Cl)c(Cl)c(Cl)c(Cl)c1C#N
0%

Form field: reported inhibition at 8.3 µg/mL of N#Cc1c(F)c(F)c(Nc2ccccc2)c(C#N)c1F
0%

Form field: reported inhibition at 8.3 µg/mL of N#Cc1c(Cl)c(Cl)c(C#N)c(Cl)c1Cl
0%

Form field: reported inhibition at 8.3 µg/mL of N#Cc1c(F)c(F)c(Nc2ccc(Cl)c(Cl)c2)c(C#N)c1F
80%

Form field: reported inhibition at 8.3 µg/mL of N#Cc1c(Cl)c(Cl)c(Cl)c(C#N)c1Cl
100%

Form field: reported inhibition at 8.3 µg/mL of CN(C)c1ccc(Nc2c(Cl)c(Cl)c(C#N)c(Cl)c2C#N)cc1
0%

###

Tested on: rice blast
Experiment: microbe, parasite or virus in culture
Assay type: cell-based
Details: Table 21, 0.1 mg/L
Please go through the items and note down their the inhibition rate against rice blast (%) 0.1 mg/L.
Give the quantity in %, number only.

Please state recorded the inhibition rate against rice blast (%) 0.1 mg/L (tested on rice blast) of N#Cc1c(Cl)c(Cl)c(Nc2ccc([N+](=O)[O-])cc2Cl)c(C#N)c1Cl
80

Please state recorded the inhibition rate against rice blast (%) 0.1 mg/L (tested on rice blast) of N#Cc1c(Cl)c(Cl)c(Nc2cc(C(F)(F)F)ccc2Cl)c(C#N)c1Cl
50

Please state recorded the inhibition rate against rice blast (%) 0.1 mg/L (tested on rice blast) of N#Cc1c(Cl)c(Cl)c(Nc2nc(Cl)c(Cl)c(Cl)c2Cl)c(C#N)c1Cl [Compound B-128b]
80

Please state recorded the inhibition rate against rice blast (%) 0.1 mg/L (tested on rice blast) of N#Cc1c(Cl)c(Cl)c(Nc2c(Cl)cc([N+](=O)[O-])cc2Cl)c(C#N)c1Cl
0

###

Test system: cucumber gray mold
Assay: Activity in vitro (96-well, High Through Put): inhibition rate against cucumber gray mold
Type: cell-based
Conditions: 2.8 mg/L
Value type: the inhibition rate against cucumber gray mold (%)
Give the quantity in %, number only.

Form field: reported the inhibition rate against cucumber gray mold (%) of N#Cc1c(Cl)c(Cl)c(C#N)c(Nc2c(F)cc([N+](=O)[O-])cc2F)c1Cl
100

Form field: reported the inhibition rate against cucumber gray mold (%) of N#Cc1cc(Cl)c(Nc2c(Cl)c(Cl)c(C#N)c(Cl)c2C#N)c(Cl)c1
80

Form field: reported the inhibition rate against cucumber gray mold (%) of N#Cc1c(Cl)c(Cl)c(Nc2cc(Cl)c(C(F)(F)F)cc2Cl)c(C#N)c1Cl
100

Form field: reported the inhibition rate against cucumber gray mold (%) of COc1c(Cl)c(Nc2c(Cl)cc([N+](=O)[O-])cc2Cl)c(C#N)c(Cl)c1C#N
100

Form field: reported the inhibition rate against cucumber gray mold (%) of N#Cc1c(Cl)c(Cl)c(C#N)c(Nc2c(F)cc([N+](=O)[O-])cc2Cl)c1Cl
100

Form field: reported the inhibition rate against cucumber gray mold (%) of N#Cc1c(Cl)c(Cl)c(Nc2c(Cl)cc([N+](=O)[O-])cc2Cl)c(C#N)c1Cl
100

Form field: reported the inhibition rate against cucumber gray mold (%) of N#Cc1c(Cl)c(Cl)c(Nc2c(F)cc([N+](=O)[O-])cc2Cl)c(C#N)c1Cl
100

Form field: reported the inhibition rate against cucumber gray mold (%) of N#Cc1c(Cl)c(Cl)c(Nc2ccc([N+](=O)[O-])cc2Cl)c(Cl)c1C#N
100

Form field: reported the inhibition rate against cucumber gray mold (%) of N#Cc1c(Cl)c(Cl)c(Nc2c(F)cc([N+](=O)[O-])cc2F)c(Cl)c1C#N
100

Form field: reported the inhibition rate against cucumber gray mold (%) of N#Cc1c(Cl)c(Cl)c(Nc2c(Br)cc([N+](=O)[O-])cc2Br)c(C#N)c1Cl
100

Form field: reported the inhibition rate against cucumber gray mold (%) of N#Cc1c(Cl)c(Cl)c(Nc2ccc([N+](=O)[O-])cc2Cl)c(C#N)c1Cl
100

Form field: reported the inhibition rate against cucumber gray mold (%) of Cc1cc([N+](=O)[O-])cc(Cl)c1Nc1c(Cl)c(Cl)c(C#N)c(Cl)c1C#N
100

Form field: reported the inhibition rate against cucumber gray mold (%) of N#Cc1c(Cl)c(Cl)c(Nc2cc(C(F)(F)F)ccc2Cl)c(C#N)c1Cl
80

###

Test system: cucumber downy mildew
Test: Protectant activity in vivo (whole plant) against cucumber downy mildew
Conditions: 100 mg/L
Method: The method is as followed: The whole plant is used in this test. The compound is dissolved in a proper solvent to get mother solution. The proper solvent is selected from acetone, methanol, DMF and so on according to their dissolving capability to the sample. The volume rate of solvent and testing solution (v/v) is equal to or less than 5%. The mother solution is diluted with water containing 0.1% tween-80 to get the testing solution whose concentration is designed. […]
Please go through the items and note down their the protectant activity (%) against cucumber downy mildew.
Give the quantity in %, number only.

Form field: reported the protectant activity (%) against cucumber downy mildew of N#Cc1c(Cl)c(Cl)c(Nc2c(Cl)cncc2Cl)c(C#N)c1Cl [Compound B-139]
100

Form field: reported the protectant activity (%) against cucumber downy mildew of N#Cc1c(Cl)c(Cl)c(Nc2cc(C(F)(F)F)ccc2Cl)c(C#N)c1Cl [Compound B-29]
100

Form field: reported the protectant activity (%) against cucumber downy mildew of N#Cc1c(Cl)c(Cl)c(Nc2c(Br)cc([N+](=O)[O-])cc2Br)c(C#N)c1Cl [Compound B-57]
100

Form field: reported the protectant activity (%) against cucumber downy mildew of CN(C)c1c(Cl)c(Nc2c(Cl)cc([N+](=O)[O-])cc2Cl)c(C#N)c(Cl)c1C#N [Compound B-73]
100

Form field: reported the protectant activity (%) against cucumber downy mildew of N#Cc1c(Cl)c(Cl)c(Nc2ccc(C(F)(F)F)cc2Cl)c(C#N)c1Cl [Compound B-28]
100

Form field: reported the protectant activity (%) against cucumber downy mildew of COc1c(Cl)c(Nc2c(Cl)cc([N+](=O)[O-])cc2Cl)c(C#N)c(Cl)c1C#N [Compound B-74]
100

Form field: reported the protectant activity (%) against cucumber downy mildew of N#Cc1c(Cl)c(Cl)c(Nc2ccc([N+](=O)[O-])cc2Cl)c(C#N)c1Cl [Compound B-35]
100

Form field: reported the protectant activity (%) against cucumber downy mildew of N#Cc1ccc(Nc2c(Cl)c(Cl)c(C#N)c(Cl)c2C#N)cc1C(F)(F)F [Compound B-40]
100

Form field: reported the protectant activity (%) against cucumber downy mildew of Cc1cc([N+](=O)[O-])cc(Cl)c1Nc1c(Cl)c(Cl)c(C#N)c(Cl)c1C#N [Compound B-58]
100

Form field: reported the protectant activity (%) against cucumber downy mildew of N#Cc1c(Cl)c(Cl)c(Nc2cc(Cl)cnc2Cl)c(C#N)c1Cl [Compound B-133]
100

Form field: reported the protectant activity (%) against cucumber downy mildew of N#Cc1c(Cl)c(Cl)c(Nc2c(Cl)cc([N+](=O)[O-])cc2Cl)c(C#N)c1Cl [Compound B-54]
100
